# tgt: human ether-à-go-go-related gene (hERG) potassium channel (human)
# Sequence (Q12809 whole entry, looked up): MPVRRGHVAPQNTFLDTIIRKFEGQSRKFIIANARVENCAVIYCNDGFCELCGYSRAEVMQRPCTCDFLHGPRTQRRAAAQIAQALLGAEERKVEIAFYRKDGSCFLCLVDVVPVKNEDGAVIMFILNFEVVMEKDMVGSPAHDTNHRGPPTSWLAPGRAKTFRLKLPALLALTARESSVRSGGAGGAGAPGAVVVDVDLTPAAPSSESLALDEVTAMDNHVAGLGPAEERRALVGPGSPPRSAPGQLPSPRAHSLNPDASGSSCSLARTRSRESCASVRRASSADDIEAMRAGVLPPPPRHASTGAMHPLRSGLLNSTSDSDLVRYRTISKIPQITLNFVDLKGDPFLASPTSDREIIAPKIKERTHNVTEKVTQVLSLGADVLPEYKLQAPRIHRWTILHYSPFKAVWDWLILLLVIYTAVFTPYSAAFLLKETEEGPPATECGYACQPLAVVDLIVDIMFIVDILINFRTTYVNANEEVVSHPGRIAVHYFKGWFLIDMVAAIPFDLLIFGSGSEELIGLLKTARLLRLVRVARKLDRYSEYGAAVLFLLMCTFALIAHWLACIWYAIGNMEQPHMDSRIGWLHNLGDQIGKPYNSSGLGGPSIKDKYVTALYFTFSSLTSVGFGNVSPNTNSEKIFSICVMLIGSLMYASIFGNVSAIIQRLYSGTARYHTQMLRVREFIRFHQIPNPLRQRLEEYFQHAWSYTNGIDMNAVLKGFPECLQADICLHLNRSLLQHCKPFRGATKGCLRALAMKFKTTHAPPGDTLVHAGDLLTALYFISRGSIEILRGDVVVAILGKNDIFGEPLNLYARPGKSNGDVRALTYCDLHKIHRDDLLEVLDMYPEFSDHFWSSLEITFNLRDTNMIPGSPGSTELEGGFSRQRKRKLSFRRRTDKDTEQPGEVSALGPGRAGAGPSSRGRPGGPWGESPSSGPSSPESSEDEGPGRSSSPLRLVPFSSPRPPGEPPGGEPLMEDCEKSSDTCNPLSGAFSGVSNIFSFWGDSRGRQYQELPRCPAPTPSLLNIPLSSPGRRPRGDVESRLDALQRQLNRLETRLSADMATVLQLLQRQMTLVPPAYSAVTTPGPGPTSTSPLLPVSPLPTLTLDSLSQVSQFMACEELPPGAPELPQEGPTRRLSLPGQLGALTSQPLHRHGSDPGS
# assay_protocol: primary screen, population patch clamp on CHO cells stably expressing hERG; higher = less effect of the substance
Screen size: about 310,000 compounds; about 2,200 (0.71%) showed an effect of 50% or more. The effect is printed as a negative number. Many of the other results were omitted from the sample, so strong results are more common in it than they were.
metric_name: hERG current change (%, negative = inhibition) at 1uM (%)
Answers are plain numbers, in %.

>>> df
                                   compound  numeric_result
0  COc1cccc(/C=C/c2nc3c(cnn3-c3ccccc3)c(=O)[nH]2)c1            9.85

State recorded hERG current change (%, negative = inhibition) at 1uM for all listed compounds.
1. CCCN1C2CCCC1CC(NC(=S)Nc1cccc(C)c1)C2 (stereo not shown)
2. CC(C)C[C@@H](C(=O)NC1CCN(Cc2ccccc2)CC1)N1C(=O)N2CCc3c([nH]c4ccccc34)[C@@]2(C)C1=O
3. C=CCn1c(=N)c(C(=O)OCC)cc2c(=O)n3cccc(C)c3nc21
4. C=CCn1c(=N)c(C(=O)NCCCOC)cc2c(=O)n3cccc(C)c3nc21
5. CCCN1C2CCCC1CC(NC(=S)Nc1cc(C)cc(C)c1)C2 (stereo not shown)
6. Cc1ccccc1S(=O)(=O)N1[C@@H](c2ccc(F)cc2)C(C(=O)O)=CC[C@H]1c1ccc(Cl)cc1

[-12.7, -12.1, -73.7, -64.2, -81.4, 8.27]

State recorded hERG current change (%, negative = inhibition) at 1uM for all listed compounds.
1. Cc1ccc(NC(=O)CSc2ccccc2NC(=O)c2cccc(Cl)c2)cc1Cl
2. CCn1c(=N)c(C(=O)NCCCOC)cc2c(=O)n3cccc(C)c3nc21
3. COc1ccc(NC(=O)Cn2nnc(C(=O)NCCc3ccc(OC)c(OC)c3)c2N)c(OC)c1
4. COc1cc(C2C(C#N)=C(N)Oc3cc(C)oc(=O)c32)cc(OC)c1OC (stereo not shown)
5. COc1cc2ccccc2cc1C(=O)N1CC(C)CC(C)C1 (stereo not shown)

1. 0.293
2. -47
3. -1.5
4. 20.5
5. -3.89

State recorded hERG current change (%, negative = inhibition) at 1uM for all listed compounds.
1. CCOC(=O)c1cc2c(=O)n3cccc(C)c3nc2n(CCOC)c1=NC(C)=O
2. CCCN1C2CCCC1CC(NC(=S)Nc1cc(C)ccc1C)C2 (stereo not shown)
3. Cc1cc(C)cc(NC(=S)NC2CC3CCCC(C2)N3C2CCCC2)c1 (stereo not shown)
4. Cc1cc(C)cc(NC(=S)NCCN(C2CCCCC2)C2CCCC2)c1
5. Cc1ccc(-c2nnn(CC(=O)N(c3ccc4c(c3)OCCO4)C(C(=O)NCC3CCCO3)c3ccc(F)cc3)n2)o1 (stereo not shown)
6. Cc1cccc(NC(=S)NCCN(C2CCCCC2)C2CCCC2)c1
7. COc1cccc(-c2ocnc2C(=O)Nc2ccc(N3CCOCC3)cc2N2CCOCC2)c1

[8.92, 8.55, -52.3, -59.7, 10.9, -1.59, 15.6]

Just for reference, paper PMC4336329 is where these values come from.
